experiment: Cytotoxicity assay (WST-1, microscopy) in HDF-N cells; type: cell-based, human; settings: human, HDF-N cells (dermal fibroblasts, neonatal); HDF-N, 200 μM peptide, 24 hours; read-out: survival rate (WST-1)
property-measured: viability at 24 h, 200 µM (%)
All answers are understood in %, so give the number only.

Challenge: Which viability at 24 h, 200 µM value belongs to N=C(N)NCCC[C@H](NC(=O)[C@H](CCCNC(=N)N)NC(=O)[C@H](CCCNC(=N)N)NC(=O)[C@H](CCC(N)=O)NC(=O)[C@H](CCCNC(=N)N)NC(=O)[C@H](CCCNC(=N)N)NC(=O)[C@H](CCCCN)NC(=O)[C@H](CCCCN)NC(=O)[C@H](CCCNC(=N)N)NC(=O)CNC(=O)[C@@H](N)Cc1ccc(O)cc1)C(=O)O [TAT, YGRKRRQRRR, reference compound] ?
Response given: 96.7

----------
experiment: Cytotoxicity assay (WST-1, microscopy) in HDF-N cells; format: cell-based, human; conditions: human, HDF-N cells (dermal fibroblasts, neonatal); at all concentrations (25-200 μM); read-out: survival rates of the HDF-N cells
Ends that are not written are not given here.
property-measured: viability at 24 h

Challenge: Which viability at 24 h value belongs to RLRLRQRRRR [Spep001, RLRLRQRRRR] ?
Response given: ≥ 90%

Challenge: Now give it for RKRWLRKPRP [Spep003, RKRWLRKPRP] too.
Response given: ≥ 90%

Challenge: Now give it for KRRWRKIPKR [Spep002, KRRWRKIPKR] too.
Response given: ≥ 90%

----------
assay: Cytotoxicity assay of difunctional peptide (WST-1, microscopy); assay type: cell-based, human; conditions: human, HDF-N cells; HDF-N, 50 μM peptide; read-out: cell proliferation rate / survival rate (WST-1)
Ends that are not written are not given here.
Give viability at 24 h, 50 µM for every item shown.

Challenge: Which viability at 24 h, 50 µM value belongs to RLRLRQRRRRKTTKS [Spep001-KTTKS, RLRLRQRRRRKTTKS] ?
Response given: 104%

Challenge: Now give it for KTTKSRLRLRQRRRR [KTTKS-Spep001, KTTKSRLRLRQRRRR] too.
Response given: 107%

----------
test: Cytotoxicity assay (WST-1, microscopy) in HaCaT cells; assay type: cell-based, human; conditions: human, HaCaT cells (keratinocytes); HaCaT, 100 μM peptide, 24 hours; read-out: survival rate (WST-1)
property-measured: viability at 24 h, 100 µM (%)
All answers are understood in %, so give the number only.

Challenge: Which viability at 24 h, 100 µM value belongs to N=C(N)NCCC[C@H](NC(=O)[C@H](CCCNC(=N)N)NC(=O)[C@H](CCCNC(=N)N)NC(=O)[C@H](CCC(N)=O)NC(=O)[C@H](CCCNC(=N)N)NC(=O)[C@H](CCCNC(=N)N)NC(=O)[C@H](CCCCN)NC(=O)[C@H](CCCCN)NC(=O)[C@H](CCCNC(=N)N)NC(=O)CNC(=O)[C@@H](N)Cc1ccc(O)cc1)C(=O)O [TAT, YGRKRRQRRR, reference compound] ?
Response given: 106

----------
test: Cytotoxicity assay (WST-1, microscopy) in HaCaT cells; assay type: cell-based, human; conditions: human, HaCaT cells (keratinocytes); HaCaT, 50 μM peptide, 24 hours; read-out: survival rate (WST-1)
Ends that are not written are not given here.
Give viability at 24 h, 50 µM for every item shown.
All answers are understood in %, so give the number only.

Challenge: Which viability at 24 h, 50 µM value belongs to RLRLRQRRRR [Spep001, RLRLRQRRRR] ?
Response given: 103

Challenge: Now give it for KRRWRKIPKR [Spep002, KRRWRKIPKR] too.
Response given: 103

Challenge: Now give it for RKRWLRKPRP [Spep003, RKRWLRKPRP] too.
Response given: 98.6

----------
experiment: Cytotoxicity assay of difunctional peptide (WST-1, microscopy); format: cell-based, human; settings: human, HDF-N cells; HDF-N, 25 μM peptide; read-out: cell proliferation rate / survival rate (WST-1)
Ends that are not written are not given here.
property-measured: viability at 24 h, 25 µM (%)
All answers are understood in %, so give the number only.

Challenge: Which viability at 24 h, 25 µM value belongs to RLRLRQRRRRKTTKS [Spep001-KTTKS, RLRLRQRRRRKTTKS] ?
Response given: 148

Challenge: Now give it for KTTKSRLRLRQRRRR [KTTKS-Spep001, KTTKSRLRLRQRRRR] too.
Response given: 120

----------
assay: Cytotoxicity assay (WST-1, microscopy) in HaCaT cells; format: cell-based, human; settings: human, HaCaT cells (keratinocytes); HaCaT, 25 μM peptide, 24 hours; read-out: survival rate (WST-1)
property-measured: viability at 24 h, 25 µM (%)
All answers are understood in %, so give the number only.

Challenge: Which viability at 24 h, 25 µM value belongs to N=C(N)NCCC[C@H](NC(=O)[C@H](CCCNC(=N)N)NC(=O)[C@H](CCCNC(=N)N)NC(=O)[C@H](CCC(N)=O)NC(=O)[C@H](CCCNC(=N)N)NC(=O)[C@H](CCCNC(=N)N)NC(=O)[C@H](CCCCN)NC(=O)[C@H](CCCCN)NC(=O)[C@H](CCCNC(=N)N)NC(=O)CNC(=O)[C@@H](N)Cc1ccc(O)cc1)C(=O)O [TAT, YGRKRRQRRR, reference compound] ?
Response given: 102

----------
assay: Cytotoxicity assay (WST-1, microscopy) in HaCaT cells; assay type: cell-based, human; conditions: human, HaCaT cells (keratinocytes); HaCaT, 100 μM peptide, 24 hours; read-out: survival rate (WST-1)
Ends that are not written are not given here.
property-measured: viability at 24 h, 100 µM (%)
All answers are understood in %, so give the number only.

Challenge: Which viability at 24 h, 100 µM value belongs to KRRWRKIPKR [Spep002, KRRWRKIPKR] ?
Response given: 101

Challenge: Now give it for RLRLRQRRRR [Spep001, RLRLRQRRRR] too.
Response given: 106

Challenge: Now give it for RKRWLRKPRP [Spep003, RKRWLRKPRP] too.
Response given: 103

----------
Give viability at 24 h, 200 µM for every item shown.
experiment: Cytotoxicity assay (WST-1, microscopy) in HDF-N cells; format: cell-based, human; conditions: human, HDF-N cells (dermal fibroblasts, neonatal); HDF-N, 200 μM peptide, 24 hours; read-out: survival rate (WST-1)
Ends that are not written are not given here.
I'd appreciate it if you wrote the number followed by its unit.

Challenge: Which viability at 24 h, 200 µM value belongs to RLRLRQRRRR [Spep001, RLRLRQRRRR] ?
Response given: 94.5%

Challenge: Now give it for RKRWLRKPRP [Spep003, RKRWLRKPRP] too.
Response given: 113%

Challenge: Now give it for KRRWRKIPKR [Spep002, KRRWRKIPKR] too.
Response given: 101%

----------
assay: Cytotoxicity assay (WST-1, microscopy) in HDF-N cells; assay type: cell-based, human; conditions: human, HDF-N cells (dermal fibroblasts, neonatal); HDF-N, 100 μM peptide, 24 hours; read-out: survival rate (WST-1)
Ends that are not written are not given here.
property-measured: viability at 24 h, 100 µM

Challenge: Which viability at 24 h, 100 µM value belongs to RLRLRQRRRR [Spep001, RLRLRQRRRR] ?
Response given: 95%

Challenge: Now give it for KRRWRKIPKR [Spep002, KRRWRKIPKR] too.
Response given: 108%

Challenge: Now give it for RKRWLRKPRP [Spep003, RKRWLRKPRP] too.
Response given: 108%

----------
experiment: Cytotoxicity assay (WST-1, microscopy) in HDF-N cells; format: cell-based, human; details: human, HDF-N cells (dermal fibroblasts, neonatal); HDF-N, 25 μM peptide, 24 hours; read-out: survival rate (WST-1)
property-measured: viability at 24 h, 25 µM
I'd appreciate it if you wrote the number followed by its unit.

Challenge: Which viability at 24 h, 25 µM value belongs to N=C(N)NCCC[C@H](NC(=O)[C@H](CCCNC(=N)N)NC(=O)[C@H](CCCNC(=N)N)NC(=O)[C@H](CCC(N)=O)NC(=O)[C@H](CCCNC(=N)N)NC(=O)[C@H](CCCNC(=N)N)NC(=O)[C@H](CCCCN)NC(=O)[C@H](CCCCN)NC(=O)[C@H](CCCNC(=N)N)NC(=O)CNC(=O)[C@@H](N)Cc1ccc(O)cc1)C(=O)O [TAT, YGRKRRQRRR, reference compound] ?
Response given: 106%

----------
assay: Cytotoxicity assay (WST-1, microscopy) in HDF-N cells; type: cell-based, human; details: human, HDF-N cells (dermal fibroblasts, neonatal); HDF-N, 50 μM peptide, 24 hours; read-out: survival rate (WST-1)
Ends that are not written are not given here.
Give viability at 24 h, 50 µM for every item shown.
All answers are understood in %, so give the number only.

Challenge: Which viability at 24 h, 50 µM value belongs to KRRWRKIPKR [Spep002, KRRWRKIPKR] ?
Response given: 105

Challenge: Now give it for RKRWLRKPRP [Spep003, RKRWLRKPRP] too.
Response given: 104

Challenge: Now give it for RLRLRQRRRR [Spep001, RLRLRQRRRR] too.
Response given: 101
